System: CCO cells
Assay: Compounds cytotoxicity assay (CCK-8 cell viability)
Format: cell-based
Conditions: channel catfish, 72 h
MEASUREMENT_TYPE: SC90 (maximum safe concentration, ≥ 90% cell survived) (µg/mL)
Note: unit µg/mL is implicit; provide only the numeric part.

In the examples that follow, each entry is paired with its recorded SC90 (maximum safe concentration, ≥ 90% cell survived).
O=c1c(O)c(-c2ccc(O)cc2)oc2cc(O)cc(O)c12 = 47.53
O=c1cc(-c2ccccc2)oc2cc(O)c(O)c(O)c12 = 29.73

Please turn your attention to the following entry.
Quick check: SC90 (maximum safe concentration, ≥ 90% cell survived) of `O=c1c(O)c(-c2cc(O)c(O)c(O)c2)oc2cc(O)cc(O)c12` ? 346.19
